Here the recorded Average % is given for each entry.
Measured On: T1, HLA-A*02:01 class I complex (conditional p*HLA*02:01, biotinylated heavy chain with beta2-microglobulin) (human, biotinylated heavy chain)
T1 construct: UV-labile peptide p* is cleaved and exchanged for the test peptide; also called HLA 2.1
Assay Comment: UV peptide exchange, HLA class I ELISA, % of Pos peptide;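 further: Streptavidin-captured HLA complexes after exchange detected via HRP anti-human B2M antibody, absorbance read, colour scales with intact complex, normalized to exchange control peptide as 100%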

{"columns": ["Binder", "Average %"],
 "data": [
  ["NMDEYVHNI (also called M115) [SF3B1.R625H13 mimic peptide NMDEYVHNI]", "68.4%"],
  ["QLWVDSTPV (also called M182) [TP53_P152L4 mimic peptide QLWVDSTPV]", "95.7%"],
  ["MMFSKRHWV (also called M013) [CIC_R215W7 mimic peptide MMFSKRHWV]", "74.4%"],
  ["LMVVGAAGV (also called M052) [KRAS_G12A3 mimic peptide LMVVGAAGV]", "51.3%"],
  ["CYMYYYSYLL (also called M104) [PTEN.R173C3 mimic peptide CYMYYYSYLL]", "8.5%"]
]}

Consider the record given below.
Requested field: Average %. Item: GLKDLLNPI (also called M080) [PIK3CA.E453K mutant peptide GLKDLLNPI]
79.4%
